- Tested on: Burkholderia mallei
- experimentalDetails: microbe, parasite or virus in culture
- Assay type: cell-based
# key: entry, value: MIC90
Give the value in µg/mL but do not write µg/mL after it.

[[record]]
compound = "C=C[C@H](N)CCCc1cc(Cl)c(F)c(-c2cc3cn(-c4ccc([C@@H]5CCC[C@@H](CCNC(C)=N)N5)c(SC)c4)c(=O)nc3[nH]2)c1"
unit = "µg/mL"
observed = 0.25

[[record]]
compound = "CCCN1[C@H](CCNC(C)=N)CCC[C@H]1c1ccc(-n2cc3cc(-c4cc(CCC[C@H](C)N)cc(Cl)c4F)[nH]c3nc2=O)cc1"
unit = "µg/mL"
observed = 0.12

[[record]]
compound = "CC(=N)NCC[C@@H]1CCC[C@@H](c2ccc(-n3cc4cc(-c5cc(CCC[C@H](C)N)cc(Cl)c5F)[nH]c4nc3=O)cc2)N1CCCF"
unit = "µg/mL"
observed = 0.25

[[record]]
compound = "CSc1cc(-n2cc3cc(-c4cc(CCC[C@@H](N)C5CC5)cc(Cl)c4F)[nH]c3nc2=O)ccc1[C@@H]1CCC[C@@H](CCNC(C)=N)N1 [RX-D1]"
unit = "µg/mL"
observed = 0.12


IN: Look up MIC90 for this compound: CC(=N)NCC[C@@H]1CCC[C@@H](c2ccc(-n3cc4cc(-c5cc(CCC[C@H](C)N)cc(Cl)c5F)[nH]c4nc3=O)cc2)N1CCCO [RX-D2]
OUT: 0.25

IN: Next: C[C@H](N)CCCc1cc(Cl)c(F)c(-c2cc3cn(-c4ccc([C@@H]5CCC[C@@H](CCNC(=N)CN)N5)cc4)c(=O)nc3[nH]2)c1
OUT: 0.25

* * *

- System: Burkholderia mallei
- experimentalDetails: microbe, parasite or virus in culture
- Format: cell-based
- conditionSummary: read-out: MIC range
# key: entry, value: MIC

These recorded examples may help you get a feel for the data.
[[record]]
compound = "C=C[C@H](N)CCCc1cc(Cl)c(F)c(-c2cc3cn(-c4ccc([C@@H]5CCC[C@@H](CCNC(C)=N)N5)c(SC)c4)c(=O)nc3[nH]2)c1 [RX-D7]"
observed = "0.06 to 0.5 µg/mL"

[[record]]
compound = "C=CCN1[C@H](CCNC(C)=N)CCC[C@H]1c1ccc(-n2cc3cc(-c4cc(CCC[C@H](C)N)cc(Cl)c4F)[nH]c3nc2=O)cc1 [RX-D10]"
observed = "0.06 to 0.25 µg/mL"


IN: Look up MIC for this compound: CC(=N)NCC[C@@H]1CSC[C@@H](c2ccc(-n3cc4cc(-c5cc(CCC[C@H](C)N)cc(Cl)c5F)[nH]c4nc3=O)cc2)N1 [RX-D9]
OUT: 0.03 to 0.5 µg/mL

IN: Next: CSc1cc(-n2cc3cc(-c4cc(CCC[C@@H](N)C5CC5)cc(Cl)c4F)[nH]c3nc2=O)ccc1[C@@H]1CCC[C@@H](CCNC(C)=N)N1 [RX-D1]
OUT: 0.06 to 0.25 µg/mL

* * *

- Test system: Burkholderia mallei
- experimentalDetails: microbe, parasite or virus in culture
- Type: cell-based
measure: MIC50 (µg/mL)
Give the value in µg/mL but do not write µg/mL after it.

[[record]]
compoundstructurestring = "CC(=N)NCC[C@@H]1CCC[C@@H](c2ccc(-n3cc4cc(-c5cc(CCC[C@H](C)N)cc(Cl)c5F)[nH]c4nc3=O)cc2C)N1"
observed = 0.06


IN: Look up MIC50 for this compound: CC(=N)NCC[C@@H]1CSC[C@@H](c2ccc(-n3cc4cc(-c5cc(CCC[C@H](C)N)cc(Cl)c5F)[nH]c4nc3=O)cc2)N1
OUT: 0.12

IN: Next: C[C@H](N)CCCc1cc(Cl)c(F)c(-c2cc3cn(-c4ccc([C@@H]5CCC[C@@H](CCSC(=N)N)N5)c(F)c4)c(=O)nc3[nH]2)c1
OUT: 0.06

Hey, just so you know, these numbers are from patent US12152031B2.
